- System: mixed spore suspension: Aureobasidium pullulans, Aspergillus amstelodami, Ceratocystis pilifera, Cladosporium sp., Penicillium sp., Sclerophomas entoxylina …
- experiment: Control of molds and sapstain fungi in mini-board test
- Design: key: 0: Free of fungal growth; 1: Traces of fungal growth; 2: Little fungal growth; 3: Moderate fungal growth; 4: Vigorous to maximum growth (all surfaces covered with fungal growth)
- runParameters: 2500 ppm; 3 week incubation
- Description: Representative compounds of this invention to be tested, were suspended in an aqueous solution containing 7.5% GENAPOL X 080™ (Hoechst-Celanese Corporation), and 20% propylene glycol monomethyl ether, to prepare the test solutions. […] The efficacy of the test compounds was determined by comparing the fungal growth on both the treated and untreated parts of the mini-boards. The degree of infection was scored according to the following scale: […]
Reported Surface score of treated mini-boards, 3 week incubation, 2500 ppm values are given for each entry in this list.
readoutType: Surface score of treated mini-boards, 3 week incubation, 2500 ppm

[[record]]
compound = "[O-][S+]1CCON=C1c1cccs1 (stereo not drawn)"
result = 0

[[record]]
compound = "O=S1(=O)CCON=C1c1cc(Br)cs1"
result = 0

[[record]]
compound = "Cc1ccc(C2=NOCCS2(=O)=O)s1"
result = 0


====

Reported MIC (ppm) against T. viride values are given for each entry in this list.
- System: molds and blue-stain fungi
- experiment: In vitro activity against molds and blue-stain fungi, poison plate assay (MIC)
- Type: cell-based
- runParameters: T. viride, malt extract agar, complete inhibition
readoutType: MIC (ppm) against T. viride

[[record]]
compound = "O=S1(=O)CCON=C1c1cccs1 [Compound 34]"
target = "molds and blue-stain fungi"
limitsign = ">"
numericresult = 25

[[record]]
compound = "[O-][S+]1CCON=C1c1cccs1 (stereo not drawn) [Compound 8]"
target = "molds and blue-stain fungi"
limitsign = ">"
numericresult = 25

[[record]]
compound = "[O-][S+]1CCON=C1c1ccc(Cl)s1 (stereo not drawn) [Compound 60]"
target = "molds and blue-stain fungi"
limitsign = "="
numericresult = 25

[[record]]
compound = "N#Cc1ccc(C2=NOCCS2(=O)=O)s1 [Compound 58]"
target = "molds and blue-stain fungi"
limitsign = "="
numericresult = 25

[[record]]
compound = "[O-][S+]1CCON=C1c1cc2ccccc2s1 (stereo not drawn) [Compound 87]"
target = "molds and blue-stain fungi"
limitsign = "="
numericresult = 10

[[record]]
compound = "N#Cc1ccc(C2=NOCC[S+]2[O-])s1 (stereo not drawn) [Compound 57]"
target = "molds and blue-stain fungi"
limitsign = ">"
numericresult = 25


====

- System: molds and blue-stain fungi
- experiment: In vitro activity against molds and blue-stain fungi, poison plate assay (MIC)
- Format: cell-based
- runParameters: S. atra, malt extract agar, complete inhibition
readoutType: MIC (ppm) against S. atra

[[record]]
compound = "[O-][S+]1CCON=C1c1cc2ccccc2s1 (stereo not shown) [Compound 87]"
resultunits = "ppm"
numericresult = 2.5

[[record]]
compound = "[O-][S+]1CCON=C1c1ccc(Cl)s1 (stereo not shown) [Compound 60]"
resultunits = "ppm"
numericresult = 5

[[record]]
compound = "N#Cc1ccc(C2=NOCC[S+]2[O-])s1 (stereo not shown) [Compound 57]"
resultunits = "ppm"
numericresult = 10

[[record]]
compound = "[O-][S+]1CCON=C1c1ccc(Cl)c(Cl)c1 (stereo not shown) [Compound 4]"
resultunits = "ppm"
numericresult = 2.5

